# System tested: PDGF-receptor beta enzyme comprising the tyrosine kinase domain (Homo sapiens)
# Construct: from amino acid 545 to 1106 of GenBank Access NO: AAA36427
# Experiment: Inhibition of PDGF-receptor kinase activity (cell-free, PLC1 peptide, 33P Flashplate)
# Assay type: biochemical
# Test context: PDGF-R kinase activity; compound at 10 uM; read-out: Percent Inhibition @ 10 uM
Values of inhibition at 10 µM greater than or equal to 70% map to Satisfied; values below map to Not satisfied.

Below, 6 compounds whose answers are already recorded.
Check this compound for inhibition at 10 µM at or above 70%: COc1cc2c(cc1OCC(O)CO)Cc1c-2n[nH]c1NCc1ccccc1Cl (stereo not drawn) Satisfied

Record COc1cccc(Nc2[nH]nc3c2Cc2cc(OC)c(OC)cc2-3)c1 ; criterion: inhibition at 10 µM no lower than 70%. Met? Satisfied

Could you verify whether the entry Clc1cccc(Nc2[nH]nc3c2Cc2cc4c(cc2-3)OCO4)c1 shows inhibition at 10 µM of no less than 70%? Satisfied

For this compound, is measured inhibition at 10 µM 70% or higher? COc1cc2c(cc1OC)-c1c(c(Nc3cccc(F)c3)nn1C(=O)Oc1ccc(Cl)cc1)C2 Satisfied

Is inhibition at 10 µM at least 70%? Consider COc1cc2c(cc1OC)-c1n[nH]c(NCc3cccc(F)c3)c1C2 Not satisfied

inhibition at 10 µM >= 70% for COc1ccc2c(c1)Cc1c-2n[nH]c1Nc1ccc(C(F)(F)F)cc1 ? Satisfied

New cases:
Assess whether reported inhibition at 10 µM for COc1cc2c(cc1OCCCn1ccnc1)Cc1c-2n[nH]c1Nc1ccc(F)c(Cl)c1 sits at 70% or higher. Satisfied

Hi, just wondering whether COc1cc2c(cc1OC)-c1c(c(Nc3cccc(F)c3)nn1C(=O)c1c(F)cccc1F)C2 shows inhibition at 10 µM of 70% or higher. Not satisfied

Quick check: does COc1cc2c(cc1OCC(O)CN1CCCC1)Cc1c-2n[nH]c1Nc1cccnc1 (stereo not drawn) have inhibition at 10 µM greater than or equal to 70%? Not satisfied

---

# System tested: PDGF-receptor beta enzyme comprising the tyrosine kinase domain (Homo sapiens, UniProt P09619)
# Construct: from amino acid 545 to 1106 of GenBank Access NO: AAA36427
# Sequence (P09619 545-1106): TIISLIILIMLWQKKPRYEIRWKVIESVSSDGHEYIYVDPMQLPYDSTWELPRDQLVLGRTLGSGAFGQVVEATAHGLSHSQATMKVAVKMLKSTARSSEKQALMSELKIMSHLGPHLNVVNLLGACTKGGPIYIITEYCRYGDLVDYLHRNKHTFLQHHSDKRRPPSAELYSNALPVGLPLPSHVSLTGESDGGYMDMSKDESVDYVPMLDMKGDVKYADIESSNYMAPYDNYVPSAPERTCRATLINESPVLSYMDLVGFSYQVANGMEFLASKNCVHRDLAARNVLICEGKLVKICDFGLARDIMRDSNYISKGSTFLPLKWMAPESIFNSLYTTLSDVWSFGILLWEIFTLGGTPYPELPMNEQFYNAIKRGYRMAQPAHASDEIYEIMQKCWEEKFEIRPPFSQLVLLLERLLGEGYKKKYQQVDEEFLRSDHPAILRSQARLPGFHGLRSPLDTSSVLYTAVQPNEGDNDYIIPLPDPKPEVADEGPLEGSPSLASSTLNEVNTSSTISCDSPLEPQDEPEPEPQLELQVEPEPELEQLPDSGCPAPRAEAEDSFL
# Experiment: Inhibition of PDGF-receptor kinase activity (cell-free, PLC1 peptide, 33P Flashplate)
# Format: biochemical
# Test context: PDGF-R kinase activity; read-out: IC50
Listing of recorded pIC50 by entry.
Please note pIC50 is a logarithmic value: minus log10 of concentration in mol/L. Answer with that number alone.

Entry Cc1ccc2c(c1)-c1n[nH]c(Nc3ccc(OC(F)(F)F)cc3)c1C2 ; pIC50 = 6.38

Just so you know, measured pIC50 for CN(C)CCCOc1cccc2c1Cc1c-2n[nH]c1Nc1cccc(Cl)c1 came out at 6.55

CCC1c2cc(OC)c(OC)cc2-c2c1c(Nc1cccc(Br)c1)nn2C(=O)COCc1ccccc1 (stereo not shown) yielded pIC50 of 6.86

Next:
Given item COc1cccc(Nc2[nH]nc3c2C(C)(C)c2cc(OC)c(OC)cc2-3)c1 , the value recorded as its pIC50 is 4.41

---

Parameter pIC50, tested on c-Abl kinase (Abelson murine leukemia virus, UniProt P00521), listed per item.
Sequence (P00521 115-385): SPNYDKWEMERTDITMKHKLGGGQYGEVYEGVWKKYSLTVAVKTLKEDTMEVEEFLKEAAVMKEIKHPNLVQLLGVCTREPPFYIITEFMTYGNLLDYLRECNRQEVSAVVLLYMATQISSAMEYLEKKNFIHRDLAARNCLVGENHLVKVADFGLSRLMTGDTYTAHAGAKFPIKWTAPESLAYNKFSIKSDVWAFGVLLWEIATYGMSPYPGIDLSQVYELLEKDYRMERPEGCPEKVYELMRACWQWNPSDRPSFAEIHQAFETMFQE
pIC50 (log units): -log10 of the concentration in mol/L.

Examples with answers:
Please fill in: pIC50 reported for Cc1ccc2c(c1)-c1n[nH]c(Nc3cccc(F)c3)c1C2 = 7.03

# pIC50 of COc1cccc(Nc2[nH]nc3c2Cc2cc(Cl)ccc2-3)c1 = 7.16

The molecule listed as OCCCOc1cc2c(cc1OCCCO)-c1n[nH]c(Nc3cccc(F)c3)c1C2 shows pIC50 equal to 8.00

For COc1cc2c(cc1O)Cc1c-2n[nH]c1Nc1cccc(F)c1 the molecule record lists pIC50 as 9.00

---
pIC50 recorded for this molecule, COC(=O)c1cccc(Nc2[nH]nc3c2Cc2cc(OC)c(OC)cc2-3)c1 , is 6.93

For this molecule ( COc1cccc(Nc2[nH]nc3c2Cc2cc(F)c(OC)cc2-3)c1 ), measured pIC50 is 7.11

// sample CCOc1cc2c(cc1OCCCO)Cc1c-2n[nH]c1Nc1cccnc1 , its pIC50 was 6.74

pIC50 reported for this molecule COc1cc2c(cc1OCCCO)Cc1c-2n[nH]c1NCc1ccccc1Cl : 7.92

Record Cc1ccc2c(c1)-c1n[nH]c(Nc3cccc(C(C)O)c3)c1C2 (centres unmarked) , field pIC50: 5.83

// pIC50 value for COc1cc2c(cc1OCCCN1CCOCC1)Cc1c-2n[nH]c1Nc1ccc(F)c(Cl)c1 : 6.06

Per the record, COc1cc2c(cc1OC)-c1c(c(Nc3cccc(F)c3)nn1C(=O)CO)C2 has pIC50 of 7.02

---

c-Abl kinase (Abelson murine leukemia virus, UniProt P00521): recorded pIC50 for assorted compounds
Kindly note that pIC50 refers to -log10 of the concentration in mol/L and answer with the value alone.

pIC50 of COc1cc2c(cc1OC)-c1n[nH]c(Nc3ccc(OCc4ccccc4)cc3)c1C2 , assay on c-Abl kinase (Abelson murine leukemia virus, UniProt P00521), is 6.36

With c-Abl kinase (Abelson murine leukemia virus, UniProt P00521) as the test system, COc1cccc2c1Cc1c-2n[nH]c1Nc1ccccc1 showed pIC50 of 6.16

Item: COc1cc(Nc2[nH]nc3c2Cc2cc(F)ccc2-3)cc(OC)c1 | System: c-Abl kinase (Abelson murine leukemia virus, UniProt P00521) | pIC50: 6.78

Then this compound:
The measured pIC50 that COc1cc2c(cc1OCCCn1ccnc1)Cc1c-2n[nH]c1Nc1ccc(F)c(Cl)c1 showed for c-Abl kinase (Abelson murine leukemia virus, UniProt P00521) is 6.19

---

# System tested: PDGF-receptor beta enzyme comprising the tyrosine kinase domain (Homo sapiens)
# Construct: from amino acid 545 to 1106 of GenBank Access NO: AAA36427
# Experiment: Inhibition of PDGF-receptor kinase activity (cell-free, PLC1 peptide, 33P Flashplate)
# Assay type: biochemical
# Test context: PDGF-R kinase activity; compound at 10 uM; read-out: Percent Inhibition @ 10 uM
Metric name: inhibition at 10 µM (%)
The reply should be a number in %, with the unit left off.

Short answer for Fc1cccc(Nc2[nH]nc3c2Cc2cc(F)ccc2-3)c1 : inhibition at 10 µM was 86

Continuing:
Noted for COCC(=O)OCC(=O)n1nc(Nc2cccc(F)c2)c2c1-c1cc(OC)c(OC)cc1C2 : its inhibition at 10 µM reads 98.5

Value of inhibition at 10 µM reported for the molecule Cc1cccc(CNc2[nH]nc3c2Cc2cc(F)ccc2-3)c1 is 87

Looking up COC(=O)n1nc(Nc2cccc(F)c2)c2c1-c1cc(OC)c(OC)cc1C2 , I see its inhibition at 10 µM listed as 69.5

// recorded inhibition at 10 µM for COc1cc2c(cc1OCCCO)Cc1c-2n[nH]c1Nc1cccc(F)c1 : 63

inhibition at 10 µM reported for this molecule Fc1ccc(F)c(Nc2[nH]nc3c2Cc2cc(Cl)ccc2-3)c1 : 67

---

# System tested: c-Abl kinase (Abelson murine leukemia virus, UniProt P00521)
# Experiment: Inhibition of c-Abl kinase activity (cell-free, Abl peptide substrate, 33P Flashplate)
# Format: biochemical
# Test context: IC50 for the c-Abl kinase activity
Simple rule here: IC50 less than 70 nM is Criterion met, otherwise Criterion not met.

Answered examples (5):
Check if IC50 falls below 70 nM for COc1cc2c(cc1OC)-c1n[nH]c(NCc3ccccc3)c1C2 . Criterion not met

Say whether its IC50 is strictly beneath 70 nM. Entry: COc1cc2c(cc1OCC(O)CN1CCCC1)Cc1c-2n[nH]c1NCc1ccccc1Cl (stereo not drawn) Criterion met

IC50 under 70 nM? Item: COc1ccc2c(c1)-c1n[nH]c(Nc3ccc(F)cc3)c1C2 Criterion not met

Please determine if CCOc1cc2c(cc1OCCCO)Cc1c-2n[nH]c1Nc1cccc(OC)c1 is below 70 nM in terms of IC50. Criterion met

Check if IC50 falls below 70 nM for Fc1ccc(Nc2[nH]nc3c2Cc2cc(F)ccc2-3)cc1 . Criterion not met

New cases:
Identify whether the compound Fc1ccc(F)c(Nc2[nH]nc3c2Cc2ccccc2-3)c1 records IC50 below 70 nM. Criterion not met

Is IC50 strictly under 70 nM for the entry COc1cc2c(cc1OC)-c1n[nH]c(Nc3ccccc3F)c1C2 ? Criterion met

Determine whether this compound shows IC50 lower than 70 nM (ties excluded): COCC(=O)n1nc(Nc2cccc(F)c2)c2c1-c1cc(OC)c(OC)cc1C2 Criterion met

Does the reported IC50 of the following compound sit strictly below 70 nM? COc1ccc2c(c1)-c1n[nH]c(Nc3cccc(F)c3)c1C2 Criterion not met

is_below(IC50, 70 nM) for CCOc1cc2c(cc1OCCCO)-c1n[nH]c(Nc3cccnc3)c1C2 ? Criterion not met

is_below(IC50, 70 nM) for COC(=O)c1cccc(Nc2[nH]nc3c2Cc2cc(OCCCN4CCCC4)c(OC)cc2-3)c1 ? Criterion not met
